# assay_text: Pharmacokinetics and Tissue Distribution in the MV4-11 xenograft model
# Format: in vivo, mice
# assay_setup: female, CB-17 SCID, mouse; heart; 5 mg/kg single intravenous dose
observation_type: half-life

Prompt: Using the record for Cc1sc2c(c1C)C(c1ccc(Cl)cc1)=N[C@@H](CC(=O)N1CCC(CN3CCN(Cc4ccc(-n5c(O)nnc5-c5cc(C(C)C)c(O)cc5O)cc4)CC3)CC1)c1nnc(C)n1-2.Cl [Compound 74] , state its measured half-life.
Completion: 3.7 h

----------
# Tested on: MV4-11 cells
# assay_text: MV4-11 Cell Cytotoxicity Assay
# Assay type: cell-based, human
# assay_setup: human, MV4-11 cells, CCK-8
observation_type: IC50 at 72 h

Examples with answers:
INSERT INTO results (molecular_string, result) VALUES
  ('Cc1sc2c(c1C)C(c1ccc(Cl)cc1)=N[C@@H](CC(=O)N1CCN(Cc3ccc4c(c3)CN(C(=O)c3ccc(O)cc3O)C4)CC1)c1nnc(C)n1-2', '> 1 µM'),
  ('CCn1c(=O)/c(=C2\Sc3ccccc3N2C)s/c1=C\c1cccc[n+]1CCNC(=O)C[C@@H]1N=C(c2ccc(Cl)cc2)c2c(sc(C)c2C)-n2c(C)nnc21', '> 1 µM');

Prompt: Using the record for Cc1sc2c(c1C)C(c1ccc(Cl)cc1)=N[C@@H](CC(=O)NCCc1ccc(CN3CCC(Cc4ccc(-n5c(C(=O)NCC(F)(F)F)nnc5-c5cc(C(C)C)c(O)cc5O)cc4)CC3)cc1)c1nnc(C)n1-2 , state its measured IC50 at 72 h.
Completion: < 0.1 µM

----------
# target_desc: BRD4 (BD1+BD2) (Homo sapiens)
# Construct: 1.8 μg/ml recombinant BRD4 (BD1+BD2 domains) protein
# assay_setup: read-out: BRD4 Binding Potency
pIC50: −log10 of the molar value.
observation_type: pIC50

Examples with answers:
INSERT INTO measurements (compound, observation_type, result) VALUES
  ('Cc1sc2c(c1C)C(c1ccc(Cl)cc1)=N[C@@H](CCN(C)CCOc1ccc(-n3c(O)nnc3-c3cc(C(C)C)c(O)cc3O)cc1)c1nnc(C)n1-2', 'pIC50', '< 6.00'),
  ('Cc1sc2c(c1C)C(c1ccc(Cl)cc1)=N[C@@H](CC(=O)N1CCC(Cc3ccc(CN(C)Cc4ccc(-n5c(O)nnc5-c5cc(C(C)C)c(O)cc5O)cc4)cc3)CC1)c1nnc(C)n1-2', 'pIC50', '< 6.00'),
  ('Cc1sc2c(c1C)C(c1ccc(Cl)cc1)=N[C@@H](CCNCC1CCN(C(=O)C3CCN(Cc4ccc(-n5c(O)nnc5-c5cc(C(C)C)c(O)cc5O)cc4)CC3)C1)c1nnc(C)n1-2 (stereo partly shown)', 'pIC50', '< 6.00');

Prompt: Using the record for Cc1sc2c(c1C)C(c1ccc(Cl)cc1)=N[C@@H](CC(=O)NCCOCCN[C@@H](C)C(=O)NC(C(=O)N1CCC[C@H]1C(=O)Nc1snnc1-c1ccccc1)C1CCCCC1)c1nnc(C)n1-2 (stereo in doubt) , state its measured pIC50.
Completion: 6.00 to 7.00

----------
# Test system: MV4-11 cells
# assay_text: MV4-11 Cell Cytotoxicity Assay
# Type: cell-based, human
# assay_setup: human, MV4-11 cells, CCK-8
Here the recorded IC50 at 72 h is given for each entry.

Examples with answers:
INSERT INTO assay_data (compound, target_desc, result) VALUES
  ('Cc1sc2c(c1C)C(c1ccc(Cl)cc1)=N[C@@H](CC(=O)NCCOCCOCCOc1ccc(-n3c(S)nnc3-c3cc(C(C)C)c(O)cc3O)cc1)c1nnc(C)n1-2', 'MV4-11 cells', '100 to 1000 nM'),
  ('CCc1cc(-c2nnc(O)n2-c2ccc(CN3CCC(C(=O)N4CCC(CNCC[C@@H]5N=C(c6ccc(Cl)cc6)c6c(sc(C)c6C)-n6c(C)nnc65)CC4)CC3)cc2)c(O)cc1O', 'MV4-11 cells', '100 to 1000 nM'),
  ('Cc1nn(-c2ccc(C(N)=O)c(NCCOCCC3CCN(C(=O)C[C@@H]4N=C(c5ccc(Cl)cc5)c5c(sc(C)c5C)-n5c(C)nnc54)CC3)c2)c2c1C(=O)CC(C)(C)C2', 'MV4-11 cells', '100 to 1000 nM'),
  ('CCc1cc(-c2nnc(C(=O)NCCN(CC)CC)n2-c2ccc(CN3CCN(CC4CCN(C(=O)C[C@@H]5N=C(c6ccc(Cl)cc6)c6c(sc(C)c6C)-n6c(C)nnc65)CC4)CC3)cc2)c(O)cc1O', 'MV4-11 cells', '< 100 nM'),
  ('Cc1sc2c(c1C)C(c1ccc(Cl)cc1)=N[C@@H](CC(=O)NCC1CCN(C(=O)C3CCN(Cc4ccc(-n5c(O)nnc5-c5cc(C(C)C)c(O)cc5O)cc4)CC3)CC1)c1nnc(C)n1-2', 'MV4-11 cells', '< 100 nM');

Prompt: Using the record for Cc1sc2c(c1C)C(c1ccc(Cl)cc1)=N[C@@H](CC(=O)NCC(=O)NCCOCCOc1ccc(-n3c(O)nnc3-c3cc(C(C)C)c(O)cc3O)cc1)c1nnc(C)n1-2 , state its measured IC50 at 72 h.
Completion: 100 to 1000 nM
